Sourced from PubChem BioAssay AID1159580

# normalized growth listing for each entry below
test: chemical genetic growth profiling, strain panel (AID 1159580);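 further: tested at 20 µM; growth read once vehicle control cultures reached saturation at 30 °C; 1 = growth at the plate median or of vehicle wells; lower values mean less growth of the strain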; conditions: S. cerevisiae deletion strains, growth OD, locus YPR106W, strain ISR1, active compounds read low
Out of some 5,500 compounds screened, about 2,000 (36%) were called active. Inconclusive results (about 18%) are left out. Some of the results follow.
measured_endpoint: normalized growth

compound | obs_value
CCOC(=O)C1=C(N)OC2=C(C(=O)CC(C)(C)C2)C1c1ccc(Cl)cc1Cl (stereo not drawn) | 0.979 (inactive)
CC(=O)Nc1ccc(/C=C/[N+](=O)[O-])cc1 | 0.988 (inactive)
O=c1c(Cl)c(-n2cccn2)cnn1-c1ccc(Cl)cc1Cl | 0.986 (inactive)
OC(CNCc1ccc(Cl)cc1)CO/N=C\C1=C(Cl)c2cc(Cl)ccc2OC1 (stereo not drawn) | 0.963 (inactive)
Fc1cccc(Cl)c1CSc1nncn1-c1ccc(OCc2ccccc2)cc1 | 0.987 (inactive)
C=CCOc1ccc(/C=C/[N+](=O)[O-])cc1 | 0.0928 (active)
CCCc1c(C(=O)Sc2ccccn2)cnn1-c1ccc(Cl)cc1 | 0.95 (inactive)
Cn1c(CSCCOc2ccccc2)nnc1SCc1ccc(Cl)cc1Cl | 0.982 (inactive)
CSc1cc(-c2ccncc2)nc(-c2cccs2)c1 | 0.959 (inactive)
O=C(NCCSCc1cccc(C(F)(F)F)c1)c1ccc(Cl)cc1 | 0.947 (inactive)
CCCc1c(C(=O)NC2Cc3ccccc3C2)cnn1-c1ccccc1 | 0.98 (inactive)
CC(C)c1ccc(NCC(O)CSc2ccccc2)cc1 (stereo not drawn) | 0.94 (inactive)
Cc1c(C)c(C)c(CSC(N)=Nc2ccc(F)cc2)c(C)c1C | 0.99 (inactive)
Cc1nn(Cc2ccc(C(=O)Sc3ccc(C(F)(F)F)cn3)o2)c(C)c1Br | 0.958 (inactive)
O=[N+]([O-])c1cc(Br)cnc1Sc1nnc(SCC2CC2)s1 | 0.978 (inactive)
O=S(=O)(N/N=C\c1ccc(Cl)cc1)c1ccc(-c2ccccn2)s1 | 0.986 (inactive)
O=[N+]([O-])/C=C/c1ccsc1 | 0.0863 (active)
COC(=O)C1=C(C)NC(C)=C(C(=O)OC)C1c1ccc(Cl)cc1Cl | 0.975 (inactive)
Cc1cc(Br)ccc1-n1c(Sc2c([N+](=O)[O-])cc(C(F)(F)F)cc2[N+](=O)[O-])nc2ccccc2c1=O | 0.968 (inactive)
FC(F)(F)c1cccc(NC(=S)Nc2csc(C(F)(F)F)c2-c2ccccc2)c1 | 0.984 (inactive)
O=C(NCc1ccncc1)c1ccc(-n2cccn2)cc1 | 0.982 (inactive)
N#CC(C#N)=C/C=C(/Sc1ccc(F)c(Cl)c1)c1ccc(Cl)cc1 | 0.957 (inactive)
O=C(Nc1ccc(N2CCOCC2)cc1)c1ccc(-n2cccn2)cc1 | 0.976 (inactive)
